Just for reference, the COVID Moonshot data (paper PMC11187573) is where these values come from.

# Lookup of reported inhibition keyed by entry
biological target: SARS-CoV-2 Main Protease (SARS-CoV-2); details: 20.0 µM
Supply the numeric figure in %, leaving out any unit text.

{"columns": ["compound", "inhibition (%)"],
 "data": [
  ["O=C(CCl)N1CCN(Cc2cc(O)cc(Cl)c2)CC1", 75],
  ["COC(=O)C(c1ccccc1Cl)N1CCc2sccc2C1 (configuration not stated)", -3.49],
  ["Cc1ncncc1NC(=O)Nc1ccccc1", -2.06]
]}

I am curious: what inhibition value has been reported for `O=C(Cc1ccc(F)cc1)Nc1cccc2cc[nH]c12` ?
-2.43

Likewise for O=C(NCc1ccccc1OCCO)C(=O)N[C@H]1C[C@H]1C1CCOCC1 (stereo in doubt) ?
1.34

Likewise for COc1ccc2c(c1)C(C(=O)Nc1cncnc1C)CCC2 (configuration not stated) ?
6.97

Likewise for `Cc1coc(NC(=O)Nc2cccnc2)n1` ?
2.91

Likewise for `Cn1cc(NC(=O)NCCCN2CCc3ccccc3C2)c2ccccc2c1=O` ?
-2.25

Likewise for C=CC(=O)N(C(C)COc1cccc(F)c1)C(C(=O)NC(C)(C)C)c1cccnc1 (configuration not stated) ?
-1.52
